- tested_on: Transient receptor potential cation channel subfamily V member 1 (Homo sapiens)
- Sequence (Q8NER1 whole entry): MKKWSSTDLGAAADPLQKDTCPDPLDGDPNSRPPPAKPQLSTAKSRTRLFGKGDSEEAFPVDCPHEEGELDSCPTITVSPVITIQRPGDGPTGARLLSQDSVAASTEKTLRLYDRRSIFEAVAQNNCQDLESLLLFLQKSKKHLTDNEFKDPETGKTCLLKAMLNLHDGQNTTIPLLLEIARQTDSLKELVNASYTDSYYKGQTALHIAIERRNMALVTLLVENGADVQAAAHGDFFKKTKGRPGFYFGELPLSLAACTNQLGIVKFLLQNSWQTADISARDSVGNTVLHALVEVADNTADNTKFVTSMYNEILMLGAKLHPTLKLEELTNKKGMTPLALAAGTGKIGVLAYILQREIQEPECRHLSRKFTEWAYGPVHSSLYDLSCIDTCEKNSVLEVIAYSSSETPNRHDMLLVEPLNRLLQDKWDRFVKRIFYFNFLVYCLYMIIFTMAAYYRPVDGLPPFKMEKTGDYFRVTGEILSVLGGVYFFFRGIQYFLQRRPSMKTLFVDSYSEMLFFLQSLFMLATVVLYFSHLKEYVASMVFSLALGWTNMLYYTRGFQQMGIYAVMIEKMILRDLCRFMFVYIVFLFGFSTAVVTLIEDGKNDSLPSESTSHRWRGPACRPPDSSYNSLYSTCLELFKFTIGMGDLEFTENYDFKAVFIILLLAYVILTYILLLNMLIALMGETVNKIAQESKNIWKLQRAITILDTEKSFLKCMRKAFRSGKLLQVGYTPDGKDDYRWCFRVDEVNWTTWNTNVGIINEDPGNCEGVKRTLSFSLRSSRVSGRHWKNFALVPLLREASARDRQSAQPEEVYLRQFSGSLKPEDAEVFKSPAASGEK
- assay_name: Antagonist activity at human recombinant TRPV1 assessed as inhibition of capsaicin-induced in intracellular calcium levels by cell-based FLIPR assay
pIC50 overview
To interpret pIC50, take it as minus log10 of a concentration measured in moles per litre.

smiles_string: CC(C)(C)c1cccc(Nc2ncnc3c2CCN(c2ncccc2C(F)(F)F)C3)c1
tested_on: Transient receptor potential cation channel subfamily V member 1 (Homo sapiens)
measured_property: pIC50
test_value: 6.28
--
smiles_string: COc1nc(Nc2nc(C(C)C)nc3c2CCN(c2ncccc2C(F)(F)F)CC3)ccc1C(F)(F)F
tested_on: Transient receptor potential cation channel subfamily V member 1 (Homo sapiens)
measured_property: pIC50
test_value: 5.61
--
smiles_string: CC(C)(C)c1ccc(Nc2ncnc3c2CCCN(c2ncccc2C(F)(F)F)C3)cc1
tested_on: Transient receptor potential cation channel subfamily V member 1 (Homo sapiens)
measured_property: pIC50
test_value: 5.69
--
smiles_string: Cc1nc2c(c(Nc3ccc(C(C)(C)C)cc3)n1)CCN(c1ncccc1C(F)(F)F)C2
tested_on: Transient receptor potential cation channel subfamily V member 1 (Homo sapiens)
measured_property: pIC50
test_value: 7.10
--
smiles_string: O=C(O)c1cnc(N2CCc3nc(N4CCCCC4)nc(Nc4ccc(C(F)(F)F)cc4)c3CC2)c(Cl)c1
tested_on: Transient receptor potential cation channel subfamily V member 1 (Homo sapiens)
measured_property: pIC50
test_value: 6.34

I am curious: what pIC50 value has been reported for CC(C)c1nc2c(c(Nc3ccc(C(C)(C)C)cc3)n1)CCN(c1ncccc1C(F)(F)F)C2 ? 7.74

I am curious: what pIC50 value has been reported for CC(C)(C)c1ccc(Nc2ncnc3c2CCN(c2ncccc2C(F)(F)F)C3)cc1 ? 8.05

I am curious: what pIC50 value has been reported for COC(=O)c1cnc(N2CCc3nc(N4CCOCC4)nc(Nc4ccc(C(F)(F)F)cc4)c3CC2)c(Cl)c1 ? 6.75

I am curious: what pIC50 value has been reported for FC(F)(F)c1cccc(Nc2ncnc3c2CCN(c2ncccc2C(F)(F)F)C3)c1 ? 5.84

----------
- assay_name: AUC (infinity) in fasted Sprague-Dawley rat at 5 mg/kg, po
- Format: ADME, organism-based
- Design: time infinity, dose 5 mg/kg, route oral
- condition_info: plasma
measured_property: AUC(0-inf)
Provide the measurement as a number trailed by its unit.

I am curious: what AUC(0-inf) value has been reported for FC(F)(F)c1ccc(Nc2nc(N3CCOCC3)nc3c2CCN(c2ncccc2C(F)(F)F)CC3)cc1 ? 236 ng·h/mL

----------
- assay_name: Volume of distribution at steady state in fasted Sprague-Dawley rat at 1 mg/kg, iv or 5 mg/kg, po
- Type: ADME, organism-based
- condition_info: in vivo, read-out: Vdss
measured_property: Vd (L/kg)
Give the number; L/kg is assumed, so skip it.

I am curious: what Vd value has been reported for FC(F)(F)c1ccc(Nc2nc(N3CCOCC3)nc3c2CCN(c2ncccc2C(F)(F)F)CC3)cc1 ? 4.7

----------
- assay_name: Cmax in fasted Sprague-Dawley rat at 1 mg/kg, iv or 5 mg/kg, po
- Format: ADME, organism-based
- condition_info: in vivo
measured_property: Cmax (nM)
Give the number; nM is assumed, so skip it.

I am curious: what Cmax value has been reported for FC(F)(F)c1ccc(Nc2nc(N3CCOCC3)nc3c2CCN(c2ncccc2C(F)(F)F)CC3)cc1 ? 160
